- Measurement target: 5-HT2BR (Homo sapiens)
- Construct: expressed in transfected cells; host or cells: Flp-In 293 T-Rex (tetracycline inducible)
- Sequence (P41595 whole entry): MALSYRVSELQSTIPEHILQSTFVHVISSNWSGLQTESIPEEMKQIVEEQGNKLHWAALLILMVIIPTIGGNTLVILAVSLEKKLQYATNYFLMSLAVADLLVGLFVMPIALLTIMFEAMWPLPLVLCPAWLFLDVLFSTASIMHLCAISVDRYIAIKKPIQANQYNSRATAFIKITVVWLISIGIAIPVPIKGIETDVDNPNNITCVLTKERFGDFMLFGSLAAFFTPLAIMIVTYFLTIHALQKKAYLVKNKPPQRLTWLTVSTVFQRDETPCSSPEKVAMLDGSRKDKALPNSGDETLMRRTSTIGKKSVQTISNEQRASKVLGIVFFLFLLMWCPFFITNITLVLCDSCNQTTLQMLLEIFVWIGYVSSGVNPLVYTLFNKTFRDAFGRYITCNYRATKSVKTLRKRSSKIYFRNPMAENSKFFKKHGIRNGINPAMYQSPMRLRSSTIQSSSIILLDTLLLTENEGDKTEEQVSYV
- Assay remarks: 5-HT2BR binding affinity (Ki), Table 8
- Assay conditions: read-out: 5-HT2BR Ki
# pKi listing for each entry below
A value of pKi is the negative decimal logarithm of a concentration given in moles per litre.

| Molecule | Measurement target | pKi |
| --- | --- | --- |
| Cc1ncc(CCN2CC(c3c[nH]c4ncccc34)=C[C@H](C)C2)cn1 | 5-HT2BR (Homo sapiens) | 6.09 |
| C[C@H]1C=C(c2c[nH]c3ncccc23)CN(CCCN(C)C)C1 | 5-HT2BR (Homo sapiens) | 5.01 |
| Cc1ncc(CCN2CC(c3c[nH]c4ncccc34)=C[C@@H](C)C2)cn1 | 5-HT2BR (Homo sapiens) | 5.39 |
| CCCN1CC(c2c[nH]c3ncccc23)=C[C@@H](C)C1 | 5-HT2BR (Homo sapiens) | 5.79 |
| C[C@@H]1C=C(c2c[nH]c3ncccc23)CN(CCCc2cnn(C)c2)C1 | 5-HT2BR (Homo sapiens) | 6.15 |
| CCc1cncn1CCN1CC(c2cccn2C)=CC(C)C1 (racemic) | 5-HT2BR (Homo sapiens) | 5.57 |

[ask] Record request: pKi value, item CCCCCN1CC(c2cnn(C)c2)=CC(C)C1 (racemic)
[reply] 5.83
